- testDescription: Metabolic stability in human liver microsomes assessed as half life at 20 uM measured upto 120 mins in presence of NADPH by LC-MS/MS analysis
- Assay type: ADME, Microsome
Please respond with reported half-life at 20 µM for every item in the list.
Report as a plain number; the unit h is understood.

[ask] Specify reported half-life at 20 µM for the molecule shown: Cc1cccc2c3c(ccc12)-c1oc2c(c1C(=O)C3=O)CCN(CCO)C2
[reply] 11.6

[ask] Could you please provide reported half-life at 20 µM for Cc1cccc2c3c(ccc12)-c1oc2c(c1C(=O)C3=O)CCN([C@H](CO)CCCO)C2 ? Thanks!
[reply] 3.73

[ask] Consider the molecule Cc1cccc2c3c(ccc12)-c1oc2c(c1C(=O)C3=O)CCN(CCCN1CCOCC1)C2 and give its recorded half-life at 20 µM.
[reply] 14.4

[ask] Please list half-life at 20 µM recorded for the molecule Cc1coc2c1C(=O)C(=O)c1c-2ccc2c(C)cccc12 [TANSHINONE I]
[reply] 0.0795
